system-name: Peroxisome proliferator-activated receptor gamma/Nuclear receptor coactivator 1 (Homo sapiens, UniProt P37231);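 note: agonist potency as compounds enhance coactivator SRC-1 recruitment to PPARgamma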
Sequence (P37231 whole entry): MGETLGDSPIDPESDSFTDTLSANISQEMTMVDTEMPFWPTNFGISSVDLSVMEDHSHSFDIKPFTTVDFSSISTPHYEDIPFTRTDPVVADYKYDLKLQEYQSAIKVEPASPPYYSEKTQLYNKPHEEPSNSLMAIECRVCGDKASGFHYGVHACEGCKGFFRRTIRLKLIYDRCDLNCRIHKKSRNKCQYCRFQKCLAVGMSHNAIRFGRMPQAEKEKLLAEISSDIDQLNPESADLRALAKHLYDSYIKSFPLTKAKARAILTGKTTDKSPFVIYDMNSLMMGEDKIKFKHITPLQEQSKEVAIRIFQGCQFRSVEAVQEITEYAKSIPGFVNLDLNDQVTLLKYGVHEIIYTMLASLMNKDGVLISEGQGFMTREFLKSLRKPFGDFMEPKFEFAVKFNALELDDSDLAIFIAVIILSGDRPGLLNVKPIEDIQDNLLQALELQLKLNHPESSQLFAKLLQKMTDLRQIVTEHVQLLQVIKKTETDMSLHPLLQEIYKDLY
Sequence (Q15788 whole entry, further chain): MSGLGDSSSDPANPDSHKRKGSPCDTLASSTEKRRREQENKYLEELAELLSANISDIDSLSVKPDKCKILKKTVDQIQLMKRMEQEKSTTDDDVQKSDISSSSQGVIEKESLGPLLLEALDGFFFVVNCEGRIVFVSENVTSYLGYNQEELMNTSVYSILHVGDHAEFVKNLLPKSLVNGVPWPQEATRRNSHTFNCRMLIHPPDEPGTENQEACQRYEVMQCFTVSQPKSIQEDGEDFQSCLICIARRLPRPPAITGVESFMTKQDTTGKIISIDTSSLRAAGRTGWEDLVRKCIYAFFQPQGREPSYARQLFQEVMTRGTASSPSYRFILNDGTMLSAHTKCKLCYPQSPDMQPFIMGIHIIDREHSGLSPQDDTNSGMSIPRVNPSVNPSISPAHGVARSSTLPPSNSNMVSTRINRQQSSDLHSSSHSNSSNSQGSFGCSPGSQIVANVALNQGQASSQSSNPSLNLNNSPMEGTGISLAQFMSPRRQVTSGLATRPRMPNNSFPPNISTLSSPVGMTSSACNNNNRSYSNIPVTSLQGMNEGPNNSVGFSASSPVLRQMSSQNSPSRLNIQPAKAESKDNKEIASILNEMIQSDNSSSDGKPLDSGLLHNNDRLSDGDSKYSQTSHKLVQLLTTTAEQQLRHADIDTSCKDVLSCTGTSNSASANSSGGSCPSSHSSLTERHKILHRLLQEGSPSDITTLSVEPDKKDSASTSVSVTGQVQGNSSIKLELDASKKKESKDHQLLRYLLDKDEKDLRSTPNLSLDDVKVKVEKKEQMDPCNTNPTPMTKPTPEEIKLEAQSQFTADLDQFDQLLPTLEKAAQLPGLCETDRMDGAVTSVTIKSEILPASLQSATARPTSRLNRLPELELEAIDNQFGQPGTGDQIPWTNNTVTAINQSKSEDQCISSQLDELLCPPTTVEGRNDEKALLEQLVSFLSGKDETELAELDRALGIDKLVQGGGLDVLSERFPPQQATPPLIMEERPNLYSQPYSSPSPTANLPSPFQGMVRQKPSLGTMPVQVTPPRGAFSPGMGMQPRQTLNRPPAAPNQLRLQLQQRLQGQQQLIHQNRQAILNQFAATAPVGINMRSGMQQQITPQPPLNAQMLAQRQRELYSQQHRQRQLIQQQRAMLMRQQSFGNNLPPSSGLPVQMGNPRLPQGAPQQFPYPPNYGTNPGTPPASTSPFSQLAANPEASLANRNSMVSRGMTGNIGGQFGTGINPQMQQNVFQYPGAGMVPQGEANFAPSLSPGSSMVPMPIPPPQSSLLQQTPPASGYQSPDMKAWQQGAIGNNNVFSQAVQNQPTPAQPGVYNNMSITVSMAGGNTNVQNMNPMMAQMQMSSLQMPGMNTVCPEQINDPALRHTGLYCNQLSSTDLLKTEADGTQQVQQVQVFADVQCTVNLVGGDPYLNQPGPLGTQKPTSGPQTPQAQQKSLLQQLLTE
Assay type: functional
experimental-endpoint: EC50

molecule=CN(CP(=O)(O)CN(C)S(C)(=O)=O)S(C)(=O)=O reported="> 79.4 µM (not active)"
molecule=N#Cc1c(NC(=O)c2ccccc2Cl)n(Cc2ccccc2)c2nc3ccccc3nc12 reported="> 79.4 µM (not active)"
molecule=O=C(N/N=C/c1ccc(O)cc1)c1csc2ccccc12 reported="> 79.4 µM (not active)"
molecule="CC(C)(O)C#Cc1ccc(CN2CCN(C3CCCCC3)C(CCO)C2)cc1 (centres undefined)" reported="> 79.4 µM (not active)"
